target: Itk (Homo sapiens)
Construct: Kinases are expressed as either kinase domains or full length constructs; made in house
Sequence (Q08881 whole entry, species assumed, the tested form may be a part): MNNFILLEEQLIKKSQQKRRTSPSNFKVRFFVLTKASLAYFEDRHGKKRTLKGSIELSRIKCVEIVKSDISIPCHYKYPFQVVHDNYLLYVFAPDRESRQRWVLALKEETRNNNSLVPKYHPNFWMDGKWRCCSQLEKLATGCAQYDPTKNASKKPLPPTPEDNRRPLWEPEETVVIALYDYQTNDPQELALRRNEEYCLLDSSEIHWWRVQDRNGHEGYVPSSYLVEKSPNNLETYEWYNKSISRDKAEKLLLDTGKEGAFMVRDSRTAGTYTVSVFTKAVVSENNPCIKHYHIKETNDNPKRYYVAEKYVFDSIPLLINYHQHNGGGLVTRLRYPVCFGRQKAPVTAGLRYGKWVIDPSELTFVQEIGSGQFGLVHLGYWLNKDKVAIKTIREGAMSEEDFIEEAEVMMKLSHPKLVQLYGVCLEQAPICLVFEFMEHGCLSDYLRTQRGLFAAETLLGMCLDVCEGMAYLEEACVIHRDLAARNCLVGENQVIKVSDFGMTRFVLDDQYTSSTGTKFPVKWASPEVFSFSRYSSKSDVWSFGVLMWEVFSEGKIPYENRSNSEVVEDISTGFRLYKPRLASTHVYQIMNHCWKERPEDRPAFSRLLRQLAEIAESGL
assay info: Kinase inhibition assay (33P transfer), Itk
Format: biochemical
condition: read-out: Itk-1
quantity name: IC50

Request: Give IC50 (Itk (Homo sapiens)) of the following molecule: Cc1ccc2c(c1)CCCN2c1ncnc(Nc2cccc(Cl)c2C)n1
Response: > 12.3 µM

Request: Could you do the same for C=CCNC(=O)c1ccc(-c2cc(Nc3ncnc(Nc4cc(OC)c(OC)c(OC)c4)n3)[nH]n2)cc1 , please?
Response: > 8.95 µM

Request: Could you do the same for COc1cc(Nc2ncnc(-n3c(NCCCc4ccccc4)nc4ccccc43)n2)cc(OC)c1OC , please?
Response: > 8.8 µM

Request: Could you do the same for c1ccc(CNc2nc3ccccc3n2-c2ncnc(Nc3cccc(Cc4nnn[nH]4)c3)n2)nc1 , please?
Response: 0.839 to 5.04 µM

* * *

target: c-Met (Homo sapiens, UniProt P08581)
Construct: Kinases are expressed as either kinase domains or full length constructs; made in house
Sequence (P08581 25-1390): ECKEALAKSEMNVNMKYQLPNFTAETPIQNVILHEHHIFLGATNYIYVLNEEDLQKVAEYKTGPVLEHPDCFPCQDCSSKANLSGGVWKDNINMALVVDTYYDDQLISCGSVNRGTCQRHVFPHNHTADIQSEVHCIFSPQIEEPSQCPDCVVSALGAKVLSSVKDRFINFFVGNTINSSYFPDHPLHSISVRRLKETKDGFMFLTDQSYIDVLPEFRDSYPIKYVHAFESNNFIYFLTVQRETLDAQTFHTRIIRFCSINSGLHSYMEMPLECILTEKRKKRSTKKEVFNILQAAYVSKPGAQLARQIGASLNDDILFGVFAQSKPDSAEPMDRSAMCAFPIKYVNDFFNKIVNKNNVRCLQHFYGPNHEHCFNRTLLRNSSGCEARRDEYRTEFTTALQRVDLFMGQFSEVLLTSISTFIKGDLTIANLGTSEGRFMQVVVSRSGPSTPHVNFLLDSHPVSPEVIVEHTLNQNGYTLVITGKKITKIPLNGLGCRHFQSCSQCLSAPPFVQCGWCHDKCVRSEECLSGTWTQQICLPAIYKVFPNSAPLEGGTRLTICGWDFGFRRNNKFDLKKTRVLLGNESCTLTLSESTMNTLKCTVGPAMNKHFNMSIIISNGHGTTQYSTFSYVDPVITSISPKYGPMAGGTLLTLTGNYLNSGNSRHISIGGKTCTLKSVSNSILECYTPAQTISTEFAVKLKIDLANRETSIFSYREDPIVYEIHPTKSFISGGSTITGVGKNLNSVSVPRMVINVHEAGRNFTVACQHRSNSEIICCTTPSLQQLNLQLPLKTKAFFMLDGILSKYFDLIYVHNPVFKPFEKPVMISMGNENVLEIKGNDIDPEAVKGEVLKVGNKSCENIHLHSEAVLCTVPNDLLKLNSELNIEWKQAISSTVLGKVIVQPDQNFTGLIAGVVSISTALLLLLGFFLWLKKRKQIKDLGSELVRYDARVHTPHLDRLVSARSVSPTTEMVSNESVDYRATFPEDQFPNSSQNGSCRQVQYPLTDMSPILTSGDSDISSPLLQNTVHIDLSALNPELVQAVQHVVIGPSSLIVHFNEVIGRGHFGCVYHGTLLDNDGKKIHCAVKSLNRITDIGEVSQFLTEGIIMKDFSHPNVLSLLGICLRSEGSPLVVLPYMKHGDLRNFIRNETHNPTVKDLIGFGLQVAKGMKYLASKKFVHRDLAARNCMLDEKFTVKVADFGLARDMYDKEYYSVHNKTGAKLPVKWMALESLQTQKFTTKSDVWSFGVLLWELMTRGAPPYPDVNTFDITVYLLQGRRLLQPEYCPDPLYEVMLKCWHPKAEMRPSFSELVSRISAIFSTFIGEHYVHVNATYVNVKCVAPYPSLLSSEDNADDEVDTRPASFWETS
assay info: Kinase inhibition assay (33P transfer), c-Met
Type: biochemical
condition: Table 2, class symbols A-E; read-out: Met-1
quantity name: IC50

Worked examples follow.
>>> df
                                   compound    value_measured
0  COc1ccc(Nc2ncnc(NCc3ncc(C(F)(F)F)cc3Cl)n2)cc1OC [Compound 858]         > 10.2 µM
1  COc1cccc(CCNc2ncnc(Nc3ccc4c(cnn4Cc4ccccc4)c3)n2)c1OC [Compound 873]         > 9.34 µM
2  O=C(O)/C=C/c1ccc(Nc2ncnc(Nc3cc(-c4ccco4)[nH]n3)n2)cc1 [Compound 886]         < 1.03 µM
3  COc1ccc(Nc2ncnc(Nc3ccc4c(cnn4Cc4ccccc4)c3)n2)cc1 [Compound 905]  0.945 to 5.67 µM
4  COc1ccc(Nc2ncnc(N(C)c3cccc(C)c3)n2)cc1OC [Compound 800]   1.14 to 6.83 µM
5  COC(=O)c1ccc(-c2cc(Nc3ncnc(Nc4cccc(S(=O)(=O)O)c4)n3)[nH]n2)cc1 [Compound 882]  0.856 to 5.13 µM
6  COc1ccc(Nc2ncnc(N(C)c3ccc([N+](=O)[O-])cc3)n2)cc1OC [Compound 862]         < 1.05 µM
7  COC(=O)c1ccc(-c2cc(Nc3ncnc(Nc4cc(F)cc(F)c4)n3)[nH]n2)cc1 [Compound 810]         > 10.6 µM
8  COc1cc(Nc2ncnc(-c3cccnc3Nc3ccccc3C)n2)cc(OC)c1OC [Compound 833]         > 10.1 µM
9  COc1ccc(CNc2ncnc(Nc3cc(-c4ccco4)[nH]n3)n2)cc1OC [Compound 822]     6.1 to 8.9 µM

Request: Consider the compound shown here: COc1cc(Nc2ncnc(NC(=O)Cc3ccccc3)n2)cc(OC)c1OC [Compound 679] What is its recorded IC50?
Response: > 11.4 µM

Request: Could you do the same for c1ccc(-c2cc(Nc3ncnc(Nc4cccc(-c5cnco5)c4)n3)[nH]n2)cc1 [Compound 1010] , please?
Response: < 1.01 µM

Request: Could you do the same for COc1ccc(Nc2ncnc(Nc3ccc4ncsc4c3)n2)cc1OC [Compound 895] , please?
Response: > 11.8 µM

Request: Could you do the same for c1ccc(Nc2ncccc2-c2ncnc(Nc3ccc4[nH]ncc4c3)n2)cc1 [Compound 1117] , please?
Response: 1.05 to 6.31 µM

* * *

pIC50: −log10 of the molar value.
For Fyn (Homo sapiens, UniProt P06241), measured pIC50 is reported for the entries below.

Worked examples follow.
In [3]: df
Out[3]:
                           molecular_string  value_measured
0  COc1cc(Nc2ncnc(-n3c(Nc4cccc(C(=O)O)c4)nc4ccccc43)n2)cc(OC)c1OC    5.33 to 6.11
1  NC(=O)c1cccc(Nc2ncnc(-n3c(N)nc4ccccc43)n2)c1    5.00 to 5.16
2  COc1cc(Nc2ncnc(Nc3ccc4c(cnn4Cc4ccccc4)c3)n2)cc(OC)c1OCCN1CCOCC1          > 6.16

We now examine a further compound.
Request: Consider the compound shown here: COc1cc(Nc2ncnc(-n3c(Nc4ccc(C(C)C)cc4)nc4ccccc43)n2)cc(OC)c1OC What is its recorded pIC50?
Response: < 5.06

* * *

Reported pIC50 values are given for each entry in this list.
target: Zap-70 (Homo sapiens)
Construct: Kinases are expressed as either kinase domains or full length constructs; made in house
Sequence (P43403 whole entry, species assumed, the tested form may be a part): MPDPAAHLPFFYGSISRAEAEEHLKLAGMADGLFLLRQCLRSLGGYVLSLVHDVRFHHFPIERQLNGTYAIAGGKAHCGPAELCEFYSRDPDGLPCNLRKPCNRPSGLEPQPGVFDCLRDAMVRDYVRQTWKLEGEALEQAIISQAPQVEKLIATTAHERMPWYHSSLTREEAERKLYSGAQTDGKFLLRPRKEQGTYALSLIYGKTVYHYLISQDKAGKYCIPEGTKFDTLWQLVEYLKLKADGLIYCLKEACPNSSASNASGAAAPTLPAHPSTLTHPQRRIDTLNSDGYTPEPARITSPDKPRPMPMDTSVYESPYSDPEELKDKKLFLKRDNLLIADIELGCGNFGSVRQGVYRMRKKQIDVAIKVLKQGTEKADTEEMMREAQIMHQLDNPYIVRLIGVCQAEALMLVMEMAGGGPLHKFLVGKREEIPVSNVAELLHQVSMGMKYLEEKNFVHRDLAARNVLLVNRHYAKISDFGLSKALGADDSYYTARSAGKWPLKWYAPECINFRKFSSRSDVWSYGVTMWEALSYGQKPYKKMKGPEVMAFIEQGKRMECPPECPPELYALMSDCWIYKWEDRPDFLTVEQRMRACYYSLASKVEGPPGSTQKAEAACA
assay info: Kinase inhibition assay (33P transfer), Zap-70
Assay type: biochemical
condition: Table 3; read-out: Zap-1
pIC50: −log10 of the molar value.

>>> df
                           molecular_string  value_measured
0  COc1cc(Nc2ncnc(Nc3ccc(C)cc3F)n2)cc(OC)c1OC          < 4.93

We now examine a further molecule.
Request: Consider the molecule shown here: COc1cc(Nc2ncnc(Nc3cc(F)ccc3F)n2)cc(OC)c1OC What is its recorded pIC50?
Response: < 4.94

* * *

target: Lck (Homo sapiens, UniProt P06239)
Construct: Kinases are expressed as either kinase domains or full length constructs; made in house
Sequence (P06239 whole entry, species assumed, the tested form may be a part): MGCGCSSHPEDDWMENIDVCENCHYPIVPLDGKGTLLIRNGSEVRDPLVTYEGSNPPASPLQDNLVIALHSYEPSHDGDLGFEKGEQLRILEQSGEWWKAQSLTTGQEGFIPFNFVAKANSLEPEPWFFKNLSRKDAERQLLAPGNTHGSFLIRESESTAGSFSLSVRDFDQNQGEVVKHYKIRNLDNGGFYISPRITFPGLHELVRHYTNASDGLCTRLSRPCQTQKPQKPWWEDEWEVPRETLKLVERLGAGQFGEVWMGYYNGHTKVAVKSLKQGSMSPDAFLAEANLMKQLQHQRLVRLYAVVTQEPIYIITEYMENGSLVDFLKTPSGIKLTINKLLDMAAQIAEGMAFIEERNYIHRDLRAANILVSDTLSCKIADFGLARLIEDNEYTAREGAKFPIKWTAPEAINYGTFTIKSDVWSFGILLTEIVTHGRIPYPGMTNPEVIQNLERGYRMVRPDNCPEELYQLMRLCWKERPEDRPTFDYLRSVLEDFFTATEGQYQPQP
assay info: Kinase inhibition assay (33P transfer), Lck
Format: biochemical
condition: read-out: Lck-1
Source text: The inhibitor compounds described herein are screened in the following manner. […] Kinases are expressed as either kinase domains or full length constructs fused to glutathione S-transferase (GST) or polyHistidine tagged fusion proteins in either E. colior Baculovirus-High Five expression systems. […]
quantity name: IC50

Request: Consider the molecule shown here: COc1cc(Nc2ncnc(-n3c(C)nc4ccccc43)n2)cc(OC)c1OC What is its recorded IC50?
Response: 1.02 to 6.12 µM

Request: Could you do the same for Cc1ccc2c(c1)CCCN2c1ncnc(NCCCn2ccnc2)n1 , please?
Response: > 12.9 µM

Request: Could you do the same for O=c1[nH]c2ccccc2n1-c1ncnc(Nc2cccc3ncccc23)n1 , please?
Response: > 12.7 µM

Request: Could you do the same for O=c1[nH]c2ccccc2n1-c1ncnc(Nc2cccc(S(=O)(=O)CCO)c2)n1 , please?
Response: > 10.9 µM

* * *

For Hck-1 (Homo sapiens), measured IC50 is reported for the entries below.

Worked examples follow.
>>> print(df.to_string())
                                   compound   value_measured
0  COc1cc(Nc2ncnc(Nc3cccc(Cl)c3)n2)cc(OC)c1OC [Compound 135]        > 11.6 µM
1  COc1cc(Nc2ncnc(Nc3ccc(C)cc3)n2)cc(OC)c1OC [Compound 930]  6.53 to 9.53 µM
2  C=CCNc1cc(-c2ncnc(Nc3cc(OC)c(OC)c(OC)c3)n2)ccn1 [Compound 412]        > 11.4 µM

Request: Consider the compound shown here: CCc1cccc(Nc2ncnc(-n3c(N)nc4ccccc43)n2)c1 [Compound 655] What is its recorded IC50?
Response: > 13.6 µM

Request: Could you do the same for COc1cc(Nc2ncnc(-n3ccc4c(OC)cccc43)n2)cc(OC)c1OC [Compound 238] , please?
Response: > 11 µM

Request: Could you do the same for COc1cc(Nc2ncnc(Nc3ccc4[nH]ccc4c3)n2)cc(OC)c1OC [Compound 928] , please?
Response: > 11.5 µM

Request: Could you do the same for COc1ccc(Nc2ncnc(Nc3cc(OC)c(OC)c(OC)c3)n2)cc1OC [Compound 36] , please?
Response: > 10.9 µM

Request: Could you do the same for COc1cc(Nc2ncnc(Nc3ccc(C(=O)O)cc3)n2)cc(OC)c1OC [Compound 104] , please?
Response: > 11.3 µM

Request: Could you do the same for Cc1cccc(Nc2ncnc(Nc3ccc4[nH]ncc4c3)n2)c1 [Compound 120] , please?
Response: 1.26 to 7.56 µM

Request: Could you do the same for COc1ccc(Nc2ccc(Nc3ncnc(Nc4cc(OC)c(OC)c(OC)c4)n3)cc2)cc1 [Compound 922] , please?
Response: > 9.48 µM

Request: Could you do the same for COc1ccc(Nc2nc3ccccc3n2-c2ncnc(Nc3cc(OC)c(OC)c(OC)c3)n2)cc1 [Compound 397] , please?
Response: > 9.01 µM

Request: Could you do the same for COc1cc(Nc2ncnc(-n3cc(CC(N)=O)c4ccccc43)n2)cc(OC)c1OC [Compound 353] , please?
Response: > 10.4 µM

Request: Could you do the same for COc1cc(Nc2ncnc(Nc3ccccc3F)n2)cc(OC)c1OC [Compound 65] , please?
Response: > 12.1 µM

Request: Could you do the same for CCN(CC)CCOc1ccc(Nc2ncnc(Nc3cc(OC)c(OC)c(OC)c3)n2)cc1OC [Compound 602] , please?
Response: > 9.03 µM

Request: Could you do the same for COc1cc(Nc2ncnc(-n3c(NCc4ccc(C)cc4)nc4ccccc43)n2)cc(OC)c1OC [Compound 516] , please?
Response: > 9.04 µM

Request: Could you do the same for COc1cc(Nc2ncnc(N3CCCc4ccccc43)n2)cc(OC)c1OC [Compound 609] , please?
Response: > 11.4 µM

Request: Could you do the same for COc1cc(Nc2ncnc(-n3c(NCc4ccc(F)cc4)nc4ccccc43)n2)cc(OC)c1OC [Compound 514] , please?
Response: > 8.97 µM
